- Subject Of Test: recombinant human UBE2C (Homo sapiens, UniProt O00762)
- Sequence (O00762 2-179): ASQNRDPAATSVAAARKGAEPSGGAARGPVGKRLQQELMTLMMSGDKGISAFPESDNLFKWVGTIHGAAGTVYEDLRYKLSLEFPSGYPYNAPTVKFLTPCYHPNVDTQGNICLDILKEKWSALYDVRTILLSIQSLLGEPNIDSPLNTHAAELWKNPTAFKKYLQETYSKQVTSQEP
- Assay Name: surface plasmon resonance, […] Langmuir fit
Readout Name: pKd
For clarity, pKd is expressed as the negative log10 of concentration in mol/L.

pKd measured on CC(=O)/C=C/C=C(/C)C#CC1=C(C)C[C@@H](O)CC1(C)C = 5.17
